Data provenance is patent US20260258084A1.

Can you tell me pSTAT3 (nM) for the items I'm about to list?
Target: T1, IL-23 receptor on the surface of HEK-Blue IL-23 cells (UniProt Q5VWK5 24-629, limits assumed)
T1 sequence (looked up): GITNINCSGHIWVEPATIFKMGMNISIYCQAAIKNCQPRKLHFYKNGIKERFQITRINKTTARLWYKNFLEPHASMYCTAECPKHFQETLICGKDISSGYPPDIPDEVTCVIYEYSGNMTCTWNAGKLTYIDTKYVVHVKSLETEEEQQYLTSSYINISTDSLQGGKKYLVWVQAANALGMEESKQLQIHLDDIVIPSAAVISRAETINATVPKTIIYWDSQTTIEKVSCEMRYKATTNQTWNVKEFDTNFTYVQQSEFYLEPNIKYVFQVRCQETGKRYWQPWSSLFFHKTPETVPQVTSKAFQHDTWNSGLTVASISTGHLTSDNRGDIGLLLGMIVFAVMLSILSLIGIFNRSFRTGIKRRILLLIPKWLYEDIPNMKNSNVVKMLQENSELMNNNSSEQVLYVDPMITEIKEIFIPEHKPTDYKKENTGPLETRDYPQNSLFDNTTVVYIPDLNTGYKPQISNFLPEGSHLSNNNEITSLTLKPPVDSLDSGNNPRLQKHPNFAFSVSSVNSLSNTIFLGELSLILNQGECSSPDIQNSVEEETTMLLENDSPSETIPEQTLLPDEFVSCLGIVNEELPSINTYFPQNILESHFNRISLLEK
Experiment: cell-based or functional assay
Starred links: 1 amine or outer side, 2 acyl side, 3 side chain; linkers in the order of their positions; H or OH if unused. Positions of bridges follow the written chain, without caps; N, C: chain ends. Non-standard residues stand in square brackets, D forms with d. Yde = (2S)-2-amino-3-[4-[2-(dimethylamino)ethoxy]phenyl]propanoic acid, CN(C)CCOc1ccc(C[C@H](N[*:1])C(=O)[*:2])cc1; Trp(7-Me) = Cc1cccc2c(C[C@H](N)C(=O)O)c[nH]c12; 2Nal = N[C@@H](Cc1ccc2ccccc2c1)C(=O)O; εLys = N[C@@H](CCCCN[*:1])C(=O)[*:2]; AEF = NCCOc1ccc(C[C@H](N)C(=O)O)cc1; 3Pal = N[C@@H](Cc1cccnc1)C(=O)O; αMeL = CC(C)C[C@](C)(N)C(=O)O; Nmapt = not defined here; Thp = NC1(C(=O)O)CCOCC1; Ava = NCCCCC(=O)O; Sar = CNCC(=O)O
Numbers only; they are read as nM.

Annotate the binder [Nmapt]CKWQC[AEF][2Nal][Thp]ENN-NH2 (lactam N-10; disulfide 2-6; not fully specified (residue 3); printed as Nmapt(§1)-C(§3)(@2)-K[aAc](@3)-W-Q-C(@2)-Yae-Nal-Thp-E(§1)-N—N—NH2; reading uncertain; also: K[aAc]: Cys2 bonded to epsilon-NH2 of acetylated Lys3, acetyl presumably on alpha-amine) [Compound of SEQ ID NO: 13] with its measured pSTAT3 (nM). 32

Annotate the binder [Ava]C[εLys](Ac)WQC[Yde][2Nal][αMeL]ENG-NH2 (lactam N-10; disulfide 2-6; also: Cys2 carboxyl bonded to Lys3 epsilon-NH2 (isopeptide), Lys3 alpha-N acetylated) [Compound of SEQ ID NO: 31] with its measured pSTAT3 (nM). 5.23

Annotate the binder [Ava]C[εLys](Ac)[Trp(7-Me)]K(Ac)C[Yde][2Nal][αMeL]EN[3Pal][Sar]-NH2 (lactam N-10; disulfide 2-6; also: Cys2 carboxyl joined to epsilon-NH2 of Lys3 (isopeptide bond), Lys3 alpha-N acetylated) [Compound of SEQ ID NO: 73] with its measured pSTAT3 (nM). 0.1
